This collection of values is drawn from the supplement of paper PMC3334620.

biological target: Cst6 (UniProt P40535); test: PBM E-score (8-mer binding enrichment) (E-score (-0.5 to 0.5)); higher = stronger / more preferred TF binding; conditions: protein concentration: 200 nM; construct: GST-DNA-binding domain
Sequence (P40535 whole entry, the tested form may be a part): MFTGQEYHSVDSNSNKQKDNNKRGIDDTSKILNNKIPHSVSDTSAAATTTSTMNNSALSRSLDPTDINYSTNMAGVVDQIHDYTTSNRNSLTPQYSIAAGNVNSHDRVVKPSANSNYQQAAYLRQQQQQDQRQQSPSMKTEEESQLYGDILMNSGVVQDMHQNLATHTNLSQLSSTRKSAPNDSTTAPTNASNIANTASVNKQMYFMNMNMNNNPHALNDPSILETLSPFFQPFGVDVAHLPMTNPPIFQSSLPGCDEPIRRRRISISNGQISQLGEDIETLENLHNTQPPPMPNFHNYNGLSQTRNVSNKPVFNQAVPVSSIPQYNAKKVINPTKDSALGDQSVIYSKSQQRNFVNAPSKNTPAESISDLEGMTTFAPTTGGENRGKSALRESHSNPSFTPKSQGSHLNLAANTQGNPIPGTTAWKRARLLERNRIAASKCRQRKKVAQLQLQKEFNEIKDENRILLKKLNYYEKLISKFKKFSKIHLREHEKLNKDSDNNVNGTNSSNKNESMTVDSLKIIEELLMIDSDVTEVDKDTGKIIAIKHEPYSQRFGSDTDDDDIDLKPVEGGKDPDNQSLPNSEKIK
In all, about 33,000 sequences were measured (“E-score (-0.5 to 0.5)”: median about -0.016, highest 2% from about 0.31 on). The entries come from a sample that favours the highest values as a whole.
Measured PBM E-score values are reported for all entries that follow.
I'd appreciate a reply containing only the number, no unit.

`ATCATCGA` has a reported PBM E-score of 0.183

Data point: `GTTGGGAA` ; PBM E-score = -0.0904

Given item `GCCATCAA` , the value recorded as its PBM E-score is -0.169

Given item `AATGATAG` , the value recorded as its PBM E-score is 0.174

Quick note, PBM E-score for `ACGTAAGG` landed at 0.347

The sequence `CATGATAC` showed PBM E-score equal to 0.251

Field PBM E-score (entry `GTCATCTA` ) reads 0.368

So, `TAAGATAA` ? Its PBM E-score was 0.159

====

biological target: Cst6 (UniProt P40535); test: PBM E-score (8-mer binding enrichment) (E-score (-0.5 to 0.5)); higher = stronger / more preferred TF binding; details: protein concentration: 200 nM; construct: GST-DNA-binding domain
In all, about 33,000 sequences were measured (“E-score (-0.5 to 0.5)”: median about -0.016, highest 2% from about 0.31 on). This is one part of a sample in which the highest values are shown more often than they occur.
Returns one of TRUE or FALSE; TRUE when PBM E-score is >= 0.03.

Qu. Textbook exercise: given the entry `GGGTGACC` , state whether its PBM E-score is greater than or equal to 0.03.
Ans. FALSE

Qu. Quick check: does `ATAATGGA` have PBM E-score greater than or equal to 0.03?
Ans. TRUE

Qu. In plain terms: is recorded PBM E-score at least 0.03 for `GAAATGAA` ?
Ans. TRUE

New cases:
Qu. Is it the case that `CAAATGAC` has PBM E-score reaching or exceeding 0.03?
Ans. TRUE

Qu. Please indicate if the recorded PBM E-score for `GCAGTTCA` meets or exceeds 0.03.
Ans. TRUE

Qu. Threshold query (PBM E-score >= 0.03) on `GTAATGAC`
Ans. TRUE

Qu. Is it the case that `ATAATCAA` has PBM E-score reaching or exceeding 0.03?
Ans. TRUE

Qu. Please tell me: is the sequence `CCTGGGAA` at or over 0.03 in terms of PBM E-score?
Ans. FALSE

====

biological target: Cst6 (UniProt P40535); experiment: PBM E-score (8-mer binding enrichment) (E-score (-0.5 to 0.5)); higher = stronger / more preferred TF binding; settings: protein concentration: 200 nM; construct: GST-DNA-binding domain
In all, about 33,000 sequences were measured (“E-score (-0.5 to 0.5)”: median about -0.016, highest 2% from about 0.31 on). This is one part of a sample in which the highest values are shown more often than they occur.
Given measured PBM E-score, output met if it is greater than or equal to 0.1 and not met if not.

Qu. Item `GTGCGTGA` with PBM E-score of 0.1 or above?
Ans. met

Qu. Decide: PBM E-score of `GTACGGCA` >= 0.1?
Ans. met

Qu. Can `CGCCGTGC` be said to have PBM E-score at or above 0.1?
Ans. met

Qu. Hi team, for `ATGACGGG` , is the recorded PBM E-score at or above 0.1?
Ans. met

Qu. Dear colleague, could you confirm whether `CCCGCCGC` has PBM E-score at or above 0.1?
Ans. met

Qu. In plain terms: is recorded PBM E-score at least 0.1 for `AGCCGCGC` ?
Ans. met

Qu. Reported PBM E-score at or above 0.1? `ATTGATAC`
Ans. met

Qu. I'd appreciate it if you could say whether `CTACGGCA` has PBM E-score at least equal to 0.1.
Ans. met

Qu. Is reported PBM E-score greater than or equal to 0.1 here: `ATGTATGG`
Ans. not met

Qu. Assess whether reported PBM E-score for `GTGTATGA` sits at 0.1 or higher.
Ans. met

More entries:
Qu. PBM E-score >= 0.1 for `GTGCGTCA` ?
Ans. met

Qu. hey, is PBM E-score for this one >= 0.1? `CGGTGCAA`
Ans. not met

Qu. Could you tell me if the measured PBM E-score of `ACGTATGG` reaches 0.1 or more?
Ans. met

Qu. Is reported PBM E-score greater than or equal to 0.1 here: `CCGTATGC`
Ans. not met

Qu. Quick check, PBM E-score >= 0.1? `ACGTATGA`
Ans. met

Qu. Quick check, PBM E-score >= 0.1? `ACAAGTTG`
Ans. not met

Qu. Hi, just wondering whether `GTCCCATA` shows PBM E-score of 0.1 or higher.
Ans. not met

Qu. Test whether the sequence `GCAGTCGC` records PBM E-score of 0.1 or higher.
Ans. not met

Qu. Check the entry `AGCGCCGG` : does PBM E-score equal or exceed 0.1?
Ans. not met

Qu. Does PBM E-score meet or surpass 0.1 for `CACCAAAC` ?
Ans. met

Qu. Please check the record `CGCGCCGC` and state if its PBM E-score is at or above 0.1.
Ans. met

Qu. Has `AAGACGGA` a recorded PBM E-score greater than or equal to 0.1?
Ans. not met

Qu. Is it the case that `AGCCGTGC` has PBM E-score reaching or exceeding 0.1?
Ans. met

Qu. Can `ATACGGCG` be said to have PBM E-score at or above 0.1?
Ans. met

Qu. Is the recorded value of PBM E-score equal to or greater than 0.1 for this sequence? `CGAACGAA`
Ans. not met

Qu. Quick check, PBM E-score >= 0.1? `AGGTATGC`
Ans. met
